The origin of these recorded values is paper PMC12282101.

# Viability Percent DMSO listing for each entry below
# Tested on: Huh-7.5.1 cells
# Assay name: Cell viability in the chemical screen (Cell TiterGlo)
# Run parameters: 10 µM compound, 72 h
Report as a plain number; the unit Percent DMSO is understood.

Answered cases to consult:
CN(C(=O)CN(CCO)CC(=O)N(C)C(C)(C)Cc1ccccc1)C(C)(C)Cc1ccccc1    102
CC1(C)CC[C@]2(C(=O)O)CC[C@]3(C)C(=CC[C@@H]4[C@@]5(C)CCC(=O)C(C)(C)[C@@H]5CC[C@]43C)[C@@H]2C1    1.23
O=c1[nH]c(=O)n([C@H]2C[C@H](O)[C@@H](CO)O2)cc1C(F)(F)F    96

// below: Viability Percent DMSO requested for another molecule
Which Viability Percent DMSO is reported for this molecule? "O=c1c2ccccc2[se]n1-c1ccccc1" 123
